tested on: OUMS-23; assay: MTS proliferation assay; assay type: cell-based, human; details: Homo sapiens, OUMS-23, 72 h
quantity: IC50

Sure, the documented IC50 for C[C@@]1(C(=O)Nc2ccc(F)nc2)CCCN1c1nc(Nc2cc(C3CC3)n[nH]2)c2cccn2n1 [BMS-754807] is 2220 nM

----------
System: COLO741
Assay: MTS proliferation assay
Format: cell-based, human
Details: Homo sapiens, COLO-741, 72 h
Protocol: Cell lines and in vitro cytotoxicity assay. Cells were maintained at 37° C. under standard cell culture conditions. Cells were plated at an optimized density for each cell line per well in 96-well microtiter FALCON® plates, incubated overnight, and then exposed to a serial dilution of drug. […] The mean IC50 and standard deviation (SD) from multiple tests for each cell line were calculated. […]
quantity: pIC50
By convention, pIC50 is the negative base-10 log of a molar concentration.

Notebook: C[C@@]1(C(=O)Nc2ccc(F)nc2)CCCN1c1nc(Nc2cc(C3CC3)n[nH]2)c2cccn2n1 [BMS-754807] , pIC50 read as 5.87
